test system: RPMI-8226; experiment: NCI tumour cell line growth inhibition, 48 h
Activity calls are given as the source filed them. Rule as the data show it: active = GI50 up to about 1.1 µM and inactive = higher.
Classes used: true = active, false = inactive

COMPOUND | CAT
[N-]=[N+]=CC(=O)COC(=O)c1ccccc1 | false
Nc1nc2ncn(CC(O)CO)c2c(=S)[nH]1 (stereo not drawn) | false
O=C(c1ccc(Cl)cc1)C1OC12C(=O)Nc1ccccc12 (stereo not drawn) | false
CN1CCc2cc(N)cc3c2C1Cc1ccc(O)c(O)c1-3 (stereo not drawn) | false
Fc1ccc2nc3n(c2c1)C(c1c(Cl)cccc1Cl)SC3 (stereo not drawn) | false
O=C(/C=C/c1ccc(Cl)c(Cl)c1)CCN1CCN(CCC(=O)/C=C/c2ccc(Cl)c(Cl)c2)CC1 | false
O=c1[nH]ncc2[nH]c3c4ccccc4ccc3c12 | false
CC1=CC(O)(c2ccc(-c3ccccc3Cl)cc2)OC1=O (stereo not drawn) | false
O=C(c1ccccc1)N1C2C3CC(OCc4ccccc4)(OCc4ccccc4)C(O3)C21 (stereo not drawn) | false
COc1cccc(N2C(=O)/C(=C\c3ccccc3)SC2c2cc(OC)c(OC)c(OC)c2)c1 (stereo not drawn) | false
O=c1[nH]c(C23CC4CC(CC(C4)C2)C3)cc2c1c(=O)oc1ccccc12 | false
O=C1C2C(C(=O)N1O)N(Cc1ccccc1)C(=O)N2Cc1ccccc1 (stereo not drawn) | false
CC(=O)c1[nH]c(NC(C)C)c(C(=S)Nc2ccccc2)c1N | true
N#CC(C#N)=C(N)/C(C#N)=C/c1cc(O)c(O)c(Br)c1 | false
Nn1c(SCC(=O)O)nc2ccccc2c1=O | false
Sc1nn2c(COc3cccc(OCc4nnc5sc(S)nn45)c3)nnc2s1 | false
COc1ccc(CNNC(=O)c2cc[n+]([BH2-]C#N)cc2)cc1OC | false
CC(=O)Nc1ccc(S(=O)(=O)/N=C2\C=CC(=O)c3ccccc32)cc1 | false
O=C([C@H](O)[C@@H](O)c1ccc(Br)cc1)C12CC3CC(CC(C3)C1)C2 | false
OCCNc1ncnc2[nH]cnc12 | false
COC(=O)c1nc(Cl)nc(Cl)c1Cl | false
NC(=O)c1ccc2c(c1)S(=O)(=O)c1ccccc1C2=O | false
N#Cc1cc2c(n(C3OC(CO)C(O)C(O)C3O)c1=S)CCCCC2 (stereo not drawn) | false

* * *

tested on: A549; test: NCI tumour cell line growth inhibition, 48 h
Activity calls are given as the source filed them. No stated cut-off is given here; in the data, active = GI50 up to about 1.1 µM and inactive = higher.
Classes used: Y (active), N (inactive)

MOLECULE | CAT
C1CN1c1nc(N2CC2)nc(N2CC2)n1 | N
CC(C)(C)c1cc(C2COC(=O)COCCOCC(=O)OCCOCCO2)cc(C(C)(C)C)c1O (centres undefined) | N
N[C@H]1CCC[C@@H](O)C1O (some centres undefined) | N
CCOC(=O)C1(C(=O)OCC)OC(=O)NC2=C1CCCC2 | N
COc1cccc(N2C(=O)/C(=C\c3ccccc3)SC2c2cc(OC)c(OC)c(OC)c2)c1 (centres undefined) | N
NC(=O)N1N=C2c3ccccc3OC[C@H]2[C@@H]1c1ccccc1 | N
COc1ccc2c(c1)c(=O)c1c(NCCN(C)C)ccc3c(=O)n(CCN(C)C)c(=O)n2c31 | Y
CN(C)c1ccc(/C=N/c2ccc(-c3nc4ccccc4o3)cc2)cc1 | N
CNc1ncccc1Nc1cc(=O)n2c3cccnc3n(C)c2c1 | N
C[N+](C)([O-])CCCNc1c2ccccc2nc2cccc([N+](=O)[O-])c12 | Y
CS(=N)(=O)CCC(N)P(=O)(O)O (centres undefined) | N
C=C1C(=O)OC2CC3(CO3)C3C(O)C(O)CC3(C)CC12 (centres undefined) | N
C=CC1(NC(=O)c2ccccc2)CCC(C(C)(C)C)CC1 (centres undefined) | N
COc1c(O)cc2oc(-c3ccc(O)cc3)cc(=O)c2c1O [HISPIDULIN] | N
CCC(=O)c1cc(C(=O)C(=S)SC)cc(C(=O)C(=S)SC)c1 | N
COc1cc(/C=c2/c3ccccc3n3c2cc(-c2ccccc2)[n+]3C)cc(OC)c1OC | N
O=[N+]([O-])c1nccn1CC(O)c1ccc(F)cc1 (centres undefined) | N
CCN(CC)CCCNc1nc(=O)[nH]c(C)c1C(=O)Nc1c2ccccc2nc2ccccc12 | N
O=C(O)CCc1ccc2c(c1)CC1(Cc3ccccc3C1)C2 | N
CCOc1cc2c(cc1OC(C)=O)C(=O)CC[C@H]1C3CC[C@H](OC(C)=O)[C@@]3(C)CC[C@H]21 (some centres undefined) | N
COc1ccc(C2S/C(=C\c3ccc([N+](=O)[O-])cc3)C(=O)N2NC(=O)Cc2ccccc2)cc1 (centres undefined) | N
CC1(C)C(C#N)=[N+]([O-])C(C)(C)N1O | N
COc1ccc(/N=C(Nc2ccc(OC)cc2)/C(=N/c2ccc(OC)cc2)Nc2ccc(OC)cc2)cc1 | N
CC1=CC(O)(c2ccc(-c3ccccc3Cl)cc2)OC1=O (centres undefined) | N
Cc1cccc(NC(=S)N/N=C(/c2ccccc2)c2ccccn2)c1 | Y
Cc1ccc2nc(-n3c(/C=C/c4ccccc4O)nc4ccccc4c3=O)sc2c1 | N
CC1(C)C(=O)N(c2ccccc2)C(=O)N1c1nc2ccccc2[nH]1 | N
COc1ccc(CNNC(=O)c2cc[n+]([BH2-]C#N)cc2)cc1OC | N
O=C(c1ccc(Cl)cc1)C1OC12C(=O)Nc1ccccc12 (centres undefined) | N
C/C(=C\C(=O)Nc1ccc2[nH]nnc2c1)Nc1ccc2[nH]nnc2c1 | N
CNc1nc(=O)c(C#N)c(-c2ccc(C)cc2)s1 | N
c1ccc([I+]c2ccccc2)cc1 | N
COC1=CC(=O)c2c(cc(COP(N)(=O)N(CCBr)CCBr)n2C)C1=O (centres undefined) | Y
Cn1nc(-c2ccccc2)c(C(=O)/C=C/c2ccc(Cl)cc2)c(N2CCCC2)c1=O | N
O=S(=O)(c1ccccc1)[C@@H]1[C@H]2C=C[C@](CS)(O2)[C@H]1S(=O)(=O)c1ccccc1 | N
Cn1c(=O)nc2n(-c3cccc(Br)c3)c3ccccc3nc-2c1=O | N
c1ccc(SC23C4C5C6C4C2C6C53)nc1 (centres undefined) | N
C=C(C)[C@@]1(OC(=O)c2cc([N+](=O)[O-])cc([N+](=O)[O-])c2)C[C@@H]2CCCC[C@@H]21 | N
COC(=O)C1CCCCCCCCCCC12SCCCS2 (centres undefined) | N
CC(C)(S)C(N)C(=O)O (stereo not drawn) [DL-PENICILLAMINE] | N
Nc1ccc2nc3n(c(=O)c2c1)CCCCC3 | N
CC(=O)CNC(=O)OC(C)(C)C | N
CCOC(=O)/C=C1\C[C@H](NC(=O)OCc2ccccc2)C(=O)N1CC(=O)OCC | N
Nc1nc2ncn(CC(O)CO)c2c(=S)[nH]1 (centres undefined) | N
